target: HCV NS5B polymerase (His-tagged, C-terminal 21 amino acid deleted NS5B, HC-J4) (Hepatitis C virus genotype 1b); construct: The cDNA encoding NS5B amino acid 1-570 (HC-J4, genotype 1b); His tag (His6, from pET-21b) (C); made in house; host or cells: E. coli BL21 (DE3); assay: NS5b polymerase assay (biochemical RdRp assay, 3H-GTP incorporation, SPA beads); design: species or system HCV genotype 1b; conditions: NS5B Polymerase Assay IC50, 200 nM enzyme, 3H-GTP incorporation, 2 h at 25° C.
Sequence (O92972 2417-3000, looked up, stated change not applied): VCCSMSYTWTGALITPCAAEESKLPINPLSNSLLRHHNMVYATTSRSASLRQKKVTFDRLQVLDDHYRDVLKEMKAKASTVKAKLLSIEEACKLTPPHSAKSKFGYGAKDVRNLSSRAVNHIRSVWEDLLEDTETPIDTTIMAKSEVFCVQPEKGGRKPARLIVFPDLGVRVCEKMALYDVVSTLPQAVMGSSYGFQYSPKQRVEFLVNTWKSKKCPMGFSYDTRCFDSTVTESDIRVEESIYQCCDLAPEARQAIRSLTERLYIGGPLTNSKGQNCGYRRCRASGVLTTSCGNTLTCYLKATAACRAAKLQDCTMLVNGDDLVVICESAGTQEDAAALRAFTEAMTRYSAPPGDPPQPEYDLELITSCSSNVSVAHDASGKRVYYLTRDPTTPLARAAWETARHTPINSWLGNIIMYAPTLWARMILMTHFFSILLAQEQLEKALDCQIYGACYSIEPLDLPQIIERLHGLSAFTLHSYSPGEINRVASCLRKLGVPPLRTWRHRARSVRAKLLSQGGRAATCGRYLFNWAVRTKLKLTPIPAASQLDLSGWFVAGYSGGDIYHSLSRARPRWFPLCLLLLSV
pIC50: −log10 of the molar value.

| compound | pIC50 |
| --- | --- |
| CC(=O)N1c2c(C#N)cccc2NC2=C(C(=O)CC(C)(C)C2)C1c1ccc(Cl)cc1Cl (centres unmarked) [compound 313] | 5.22 |
| COc1ccc(C2C3=C(CC(C)(C)CC3=O)Nc3ccccc3N2C(=O)CC(C)C)cc1 (centres unmarked) [compound 41] | < 4.37 |
| CC(=O)N1c2ccccc2NC2=C(C(=O)CC(C)C2)C1c1ccc(Cl)cc1Cl (centres unmarked) [compound 294] | 4.98 |
| CC1(C)CC(=O)C2=C(C1)Nc1ccccc1N(C(=O)Cc1ccc(Cl)cc1)C2c1ccco1 (centres unmarked) [compound 253] | < 4.37 |
| CCCCCC(=O)N1c2ccccc2NC2=C(C(=O)CC(c3ccc(Cl)cc3)C2)C1c1ccc(Cl)cc1 (centres unmarked) [compound 164] | < 4.48 |
| CC1(C)CC(=O)C2=C(C1)Nc1ccccc1N(C(=O)Cc1ccc(Cl)cc1)C2c1cccs1 (centres unmarked) [compound 245] | < 4.37 |
| CC(C)CC(=O)N1c2ccccc2NC2=C(C(=O)CC(C)(C)C2)C1c1cccnc1 (centres unmarked) [compound 270] | < 4.48 |
| CC(=O)N1c2c(C)cccc2NC2=C(C(=O)CC(C)(C)C2)C1c1ccc(Cl)cc1Cl (centres unmarked) [compound 314] | 5.35 |
